target: Cholinesterase (Homo sapiens); experiment: Inhibition of human BuChE using butyrylthiocholine iodide as substrate at 100 uM measured for 1 min by spectrophotometric based Ellman's method relative to control
Sequence (P06276 whole entry): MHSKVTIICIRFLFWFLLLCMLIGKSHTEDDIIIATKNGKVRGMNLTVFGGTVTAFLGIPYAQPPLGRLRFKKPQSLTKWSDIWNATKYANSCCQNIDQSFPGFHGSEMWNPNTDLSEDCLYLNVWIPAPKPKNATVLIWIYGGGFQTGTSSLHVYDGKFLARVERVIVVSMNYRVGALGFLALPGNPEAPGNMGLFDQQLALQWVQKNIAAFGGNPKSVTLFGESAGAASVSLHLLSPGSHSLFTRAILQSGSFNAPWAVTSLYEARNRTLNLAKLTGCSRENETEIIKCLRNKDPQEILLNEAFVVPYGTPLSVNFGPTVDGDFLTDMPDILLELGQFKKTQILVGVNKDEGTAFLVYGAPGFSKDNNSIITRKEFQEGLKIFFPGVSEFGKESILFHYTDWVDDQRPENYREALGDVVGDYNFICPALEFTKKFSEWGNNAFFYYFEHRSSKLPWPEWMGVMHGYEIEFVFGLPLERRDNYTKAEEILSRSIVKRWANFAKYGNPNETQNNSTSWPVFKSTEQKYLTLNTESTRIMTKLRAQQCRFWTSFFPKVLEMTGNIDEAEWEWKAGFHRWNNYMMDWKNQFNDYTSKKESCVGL
Listing of recorded inhibition by entry.

COMPOUND | UNITS SYMBOL | inhibition
CO[C@@H]1C=C[C@@]23c4cc5c(cc4CN(C[C@@H]2O)[C@H]3C1)OCO5 [(+)-HAEMANTHAMINE] | % | 13
COc1c2c(cc3c1OCO3)[C@]13C=C[C@H](OC)C[C@@H]1[N@](C2)C[C@H]3OC(=O)c1ccccc1 | % | 97
COc1cccc(C(=O)O[C@@H]2C[N@@]3Cc4c(cc5c(c4OC)OCO5)[C@@]24C=C[C@H](OC)C[C@H]34)c1 | % | 91
COc1c2c(cc3c1OCO3)[C@]13C=C[C@H](OC)C[C@@H]1[N@](C2)C[C@H]3OC(=O)c1ccoc1 | % | 61
COc1c2c(cc3c1OCO3)[C@]13C=C[C@H](OC)C[C@@H]1[N@](C2)C[C@H]3OC(=O)C(C)C | % | 12
COc1c2c(cc3c1OCO3)[C@]13C=C[C@H](OC)C[C@@H]1[N@](C2)C[C@H]3OC(=O)c1cccc([N+](=O)[O-])c1 | % | 53
COc1ccc(C(=O)O[C@@H]2C[N@@]3Cc4c(cc5c(c4OC)OCO5)[C@@]24C=C[C@H](OC)C[C@H]34)cc1OC | % | 33
COc1c2c(cc3c1OCO3)[C@]13C=C[C@H](OC)C[C@@H]1[N@](C2)C[C@H]3OC(=O)c1ccc([N+](=O)[O-])cc1 | % | 37
COc1c2c(cc3c1OCO3)[C@]13C=C[C@H](OC)C[C@@H]1[N@](C2)C[C@H]3OC(C)=O | % | 28
COc1c2c(cc3c1OCO3)[C@]13C=C[C@H](OC)C[C@@H]1[N@](C2)C[C@H]3O | % | 8
COc1ccccc1C(=O)O[C@@H]1C[N@@]2Cc3c(cc4c(c3OC)OCO4)[C@@]13C=C[C@H](OC)C[C@H]23 | % | 99
COc1c2c(cc3c1OCO3)[C@]13C=C[C@H](OC)C[C@@H]1[N@](C2)C[C@H]3OC(=O)c1ccc2ccccc2c1 | % | 77
CCCCC(=O)O[C@@H]1C[N@@]2Cc3c(cc4c(c3OC)OCO4)[C@@]13C=C[C@H](OC)C[C@H]23 | % | 39
COc1ccc(C(=O)O[C@@H]2C[N@@]3Cc4c(cc5c(c4OC)OCO5)[C@@]24C=C[C@H](OC)C[C@H]34)cc1 | % | 32
COc1c2c(cc3c1OCO3)[C@]13C=C[C@H](OC)C[C@@H]1[N@](C2)C[C@H]3OC(=O)c1cccc(C)c1 | % | 98
